assay-details: inhibition of 3D7 malaria parasite growth – strain 3D7 (AID 2306);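 further: 0% = DMSO wells and 100% = chloroquine plus artemisinin control wells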
reported-conditions: P. falciparum 3D7 erythrocytic growth, LDH absorbance, 72 h; at 2 µM; hits give high values
endpoint-name: growth inhibition (%)

molecule	observed-value
COc1cccc(OC)c1C(=O)N1CCC2(CC1)C(=O)N(CC(=O)NC1CCCCC1)CN2c1ccccc1	92
O=C(c1ccc(-c2ccc(-c3nc4ccc(C(F)(F)F)cc4[nH]3)s2)cc1)N1CCCCC1CN1CCC(O)C1 (centres undefined)	92
CS(=O)(=O)NCCCNCc1ccc(-c2cccc(-c3nc4ccc(F)cc4[nH]3)c2)cc1	98
CN(C)c1cccc2c1nc(-c1ccc3c(c1)CCO3)n2CCNCc1ccccc1	99
COc1ccc2c(CCNc3nc(SC)ncc3C(=O)NCCc3ccc(F)cc3)c[nH]c2c1	91
CCCCN1CCN(c2cc(NS(=O)(=O)c3cccc(C(=O)Nc4ccc(C(F)(F)F)cc4)c3)ccc2OC)CC1	99
CN(CCC(O)c1ccc(Cl)c(Cl)c1)C[C@H]1C[C@@H]1C(=O)c1ccccc1 (some centres undefined)	98
O=C(/C=C/c1ccc(Cl)c(Cl)c1)NCCCCCN1CCC(NC(=O)c2ccc([N+](=O)[O-])cc2)CC1	100
Cc1cccc2[nH]c(-c3cccc(-c4ccc(NC(=O)NCc5ccccc5)cc4)c3)nc12	101

Origin of values: PubChem BioAssay
